# Experimental protocol: MTT cytotoxicity assay on normal cells
# Format: cell-based
# Assay conditions: human, WI38 normal fibroblast cells
# Text: The cytotoxicity of the prepared tri-and tetra-cyclic thiadiazolopyrimidine compounds were examined toward various cancer cell lines, such as liver and breast cancer (MCF-7), prostate cancer (PC3), laryngeal carcinoma (Hep-2), carcinoma (HepG2), and standard normal fibroblast cells (WI38) using the MTT assay[33] at the National Research Centre (Egypt). […]
Values of IC50 at 3 days strictly less than 40 µM map to label 1, and values of at least 40 µM map to label 0.

Worked set:
| Compound | Category label |
| --- | --- |
| COc1ccc(N=Nc2c(O)nn3c(N)c4c(=O)nc5scnn5c4nc23)cc1 [Compound 17b] | label 0 |
| Nc1c2c(=O)nc3scnn3c2nc2nncn12 | label 1 |
| Cc1ccc(N=Nc2c(N)nn3c(N)c4c(=O)nc5scnn5c4nc23)cc1 [Compound 16a] | label 0 |
| Nc1n[nH]c2c1c(=O)nc1scnn12 | label 1 |

Query string: Is the reported IC50 at 3 days for "Nc1c2c(=O)nc3scnn3c2nc2nnnn12" strictly below 40 µM?
Result string: label 1

Query string: Please determine if CC1=C(C#N)C2C(=C(N)O1)C(=O)N=C1SC=NN12 (stereo not shown) is below 40 µM in terms of IC50 at 3 days.
Result string: label 1

Query string: IC50 at 3 days under 40 µM? Item: CC(=O)C1=C(C)OC(N)=C2C(=O)N=C3SC=NN3C12 (stereo not shown)
Result string: label 1

Query string: Lab note: IC50 at 3 days threshold 40 µM. Does this compound come in strictly under it? "Nc1nn(-c2ccccc2)c2c1c(=O)nc1scnn12"
Result string: label 1

Query string: IC50 at 3 days strictly < 40 µM for this compound? CC1=C(C(=O)c2ccccc2)C2C(=C(N)O1)C(=O)N=C1SC=NN12 (stereo not shown)
Result string: label 0

Query string: Criterion: IC50 at 3 days strictly below 40 µM. Is it met by Cc1ccc(N=Nc2c(O)nn3c(N)c4c(=O)nc5scnn5c4nc23)cc1 [Compound 17a] ?
Result string: label 0

---

Below are MIC values recorded for Bacillus cereus UW85.
Please state the figure in µg/mL; there is no need to write the unit.

Solved cases (3 shown):
| Compound | Test value |
| --- | --- |
| CC(=O)C1=C(C)OC(N)=C2C(=O)N=C3SC=NN3C12 (centres unmarked) | 625 |
| CC1=C(C#N)C2C(=C(N)O1)C(=O)N=C1SC=NN12 (centres unmarked) | 312 |
| CCOC(=O)c1c(N)nc(N)c2c(=O)nc3scnn3c12 | 1250 |

# input for lookup
Query string: What value of MIC has been recorded for this entry: CC1(C)S[C@@H]2[C@H](NC(=O)[C@H](N)c3ccccc3)C(=O)N2[C@H]1C(=O)O [Ampicillin, reference compound]
Result string: 1250

---

# Tested on: Hep-2
# Experimental protocol: MTT cytotoxicity assay
# Format: cell-based
# Assay conditions: Homo sapiens, HEp-2, 72 h, 3 days
# From the text: The cytotoxicity of the prepared tri-and tetra-cyclic thiadiazolopyrimidine compounds were examined toward various cancer cell lines, such as liver and breast cancer (MCF-7), prostate cancer (PC3), laryngeal carcinoma (Hep-2), carcinoma (HepG2), and standard normal fibroblast cells (WI38) using the MTT assay[33] at the National Research Centre (Egypt). […]
Listed below: pIC50 values for each entry.
// scale note: pIC50 = -log10(conc_M); give the bare number

| Molecule | pIC50 |
| --- | --- |
| CC1=C(C#N)C2C(=C(N)O1)C(=O)N=C1SC=NN12 (stereo not shown) [Compound 9a] | 4.70 |
| Nc1nn(-c2ccccc2)c2c1c(=O)nc1scnn12 [Compound 5] | 4.21 |

Query string: // map Nc1c2c(=O)nc3scnn3c2nc2nnnn12 [Compound 11] to recorded pIC50 (system: Hep-2)
Result string: 4.41

Query string: Missing value: pIC50, Hep-2, entry Cc1n[nH]c2c1C1C(=C(N)O2)C(=O)N=C2SC=NN21 (stereo not shown) [Compound 10a] . Fill in?
Result string: 4.47

Query string: pIC50 of CC1=C(C(=O)c2ccccc2)C2C(=C(N)O1)C(=O)N=C1SC=NN12 (stereo not shown) [Compound 8b] on Hep-2?
Result string: 4.83

Query string: State its pIC50 on Hep-2: Cc1cc2nc3c(c(N)n2n1)c(=O)nc1scnn13 [Compound 13]
Result string: 4.52

Query string: Kindly state the measured pIC50 obtained for Nc1c2c(=O)nc3scnn3c2nc2nncn12 [Compound 12] with Hep-2.
Result string: 4.47

Query string: // fetch Hep-2 pIC50 for Cc1nn(-c2ccccc2)c2c1C1C(=C(N)O2)C(=O)N=C2SC=NN21 (stereo not shown) [Compound 10b]
Result string: 4.54

Query string: // lookup pIC50 | system=Hep-2 | key= N#Cc1c(N)nc(N)c2c(=O)nc3scnn3c12 [Compound 6]
Result string: 4.24

Query string: # query: pIC50 | item CC(=O)C1=C(C)OC(N)=C2C(=O)N=C3SC=NN3C12 (stereo not shown) [Compound 8a] | system: Hep-2
Result string: 4.65

---

# System: Hep-2
# Experimental protocol: MTT cytotoxicity assay
# Assay type: cell-based
# Assay conditions: Homo sapiens, HEp-2, 72 h, 3 days
Assay endpoint: pIC50
For clarity, pIC50 is expressed as the negative log10 of concentration in mol/L.

// below: answered compounds
| Compound | Measurement target | Test value |
| --- | --- | --- |
| Cc1ccc(N=Nc2c(N)nn3c(N)c4c(=O)nc5scnn5c4nc23)cc1 [Compound 16a] | Hep-2 | 4.48 |
| COc1ccc(N=Nc2c(N)nn3c(N)c4c(=O)nc5scnn5c4nc23)cc1 [Compound 16b] | Hep-2 | 4.42 |

Query string: Entry Nc1n[nH]c2c1c(=O)nc1scnn12 [Compound 4] has what pIC50?
Result string: 4.11

Query string: # pIC50 lookup, item O=c1[nH]cc(F)c(=O)[nH]1 [Compound 5-Fu, 5-Fluorouracil, reference compound]
Result string: 5.27

Query string: Recorded pIC50 of N#CC1=C(c2ccccc2)OC(N)=C2C(=O)N=C3SC=NN3C12 (stereo not drawn) [Compound 9b] , please.
Result string: 4.93

Query string: Find the recorded pIC50 belonging to Cc1ccc(N=Nc2c(O)nn3c(N)c4c(=O)nc5scnn5c4nc23)cc1 [Compound 17a] and report it.
Result string: 4.53

---

# Tested on: Bacillus cereus UW85
Reported MIC values for a set of compounds
Quick reminder: number only, in µg/mL, skip the unit.

Sample answers from the record:
| Compound | Units of measure | Test value |
| --- | --- | --- |
| Cc1nn(-c2ccccc2)c2c1C1C(=C(N)O2)C(=O)N=C2SC=NN21 (centres unmarked) [Compound 10b] | µg/mL | 625 |
| Nc1c2c(=O)nc3scnn3c2nc2nnnn12 | µg/mL | 1250 |
| Nc1nn(-c2ccccc2)c2c1c(=O)nc1scnn12 | µg/mL | 625 |

Would you kindly look at the next entry?
Query string: Could you share what MIC was measured for N#CC1=C(c2ccccc2)OC(N)=C2C(=O)N=C3SC=NN3C12 (centres unmarked) , tested on Bacillus cereus UW85?
Result string: 156

---

These records show MIC for Candida albicans.
Give just the number in µg/mL; leave the unit off.

| Compound | Assay endpoint | Units of measure | Test value |
| --- | --- | --- | --- |
| Cc1cc2nc3c(c(N)n2n1)c(=O)nc1scnn13 | MIC | µg/mL | 1250 |
| CC1=C(C(=O)c2ccccc2)C2C(=C(N)O1)C(=O)N=C1SC=NN12 (stereo not shown) | MIC | µg/mL | 156 |

Query string: I'm curious: which MIC was measured for COc1ccc(N=Nc2c(O)nn3c(N)c4c(=O)nc5scnn5c4nc23)cc1 [Compound 17b] tested on Candida albicans?
Result string: 1250

Query string: Short answer please: MIC, Candida albicans, entry CC1=C(C#N)C2C(=C(N)O1)C(=O)N=C1SC=NN12 (stereo not shown)
Result string: 312

Query string: Missing value: MIC, Candida albicans, entry CC(=O)C1=C(C)OC(N)=C2C(=O)N=C3SC=NN3C12 (stereo not shown) . Fill in?
Result string: 312

Query string: // fetch Candida albicans MIC for "Nc1c2c(=O)nc3scnn3c2nc2nnnn12"
Result string: 1250

Query string: Form field - read-out: MIC; system: Candida albicans; submitted item: N#CC1=C(c2ccccc2)OC(N)=C2C(=O)N=C3SC=NN3C12 (stereo not shown)
Result string: 312

---

This section lists MIC readings for Staphylococcus aureus ATCC 29213.
Write down the numeric answer in mg/L and omit the unit.

Example results:
| Compound | Units of measure | Test value |
| --- | --- | --- |
| Cc1n[nH]c2c1C1C(=C(N)O2)C(=O)N=C2SC=NN21 (stereo not shown) [Compound 10a] | mg/L | 625 |
| CC1=C(C(=O)c2ccccc2)C2C(=C(N)O1)C(=O)N=C1SC=NN12 (stereo not shown) | mg/L | 156 |

Query string: Which MIC value is on record for COc1ccc(N=Nc2c(O)nn3c(N)c4c(=O)nc5scnn5c4nc23)cc1 [Compound 17b] ?
Result string: 1250

Query string: Query (compound): "Nc1c2c(=O)nc3scnn3c2nc2nnnn12" ; field requested: MIC
Result string: 312

Query string: What value of MIC has been reported for the following compound? CC1=C(C#N)C2C(=C(N)O1)C(=O)N=C1SC=NN12 (stereo not shown)
Result string: 312

Data provenance is paper PMC8333053.
